target: Full length human recombinant HDAC6 protein (Homo sapiens, UniProt Q9UBN7); assay: In vitro histone deacetylase assay: enzymatic HDAC6 electrophoretic mobility shift assay; settings: 1 nM enzyme, 2 μM peptide substrate RHKK(Ac)-NH2, 25° C., 12 concentrations; read-out: Inhibitory Concentration (IC50) Values against HDAC6, Activity Range
pIC50: −log10 of the molar value.
property_measured: pIC50

1) CC1(C(=O)N2Cc3ccc(C(=O)NO)cc3O[C@H](c3ccccc3)C2)CCC1 | 6.30 to 7.00
2) C[C@H]1COc2cc(C(=O)NO)ccc2CN1C(=O)C1CCC(OC(F)(F)F)CC1 (single isomer, unassigned) | ≥ 7.00
3) O=C(NO)c1ccc2c(c1)OCCN(C(=O)C1CC13CCNC3)C2 (centres unmarked) | < 6.30
4) O=C(NO)c1ccc2c(c1)OCC(C1CCOCC1)N(C(=O)C1CCOCC1)C2 (centres unmarked) | < 6.30
5) C[C@H]1c2ccc(C(=O)NO)cc2OCCN1C(=O)C1(C)COC1 | ≥ 7.00

// for each compound below, give its pIC50
1. O=C(NO)c1ccc2c(c1)OCCN(C(=O)C1Cc3ccccc31)C2 (centres unmarked)
2. Cc1ccn(C(C)(C)C(=O)N2CCOc3cc(C(=O)NO)ccc3C2)n1

≥ 7.00
≥ 7.00

pIC50 for O=C(NO)c1ccc2c(c1)OCCN(C(=O)C1CC1c1ccccc1)C2 (centres unmarked) ? ≥ 7.00

---

molecular target: Full length human recombinant HDAC6 protein (Homo sapiens); test: In vitro histone deacetylase assay: enzymatic HDAC6 electrophoretic mobility shift assay; conditions: 1 nM enzyme, 2 μM peptide substrate RHKK(Ac)-NH2, 25° C., 12 concentrations; read-out: Inhibitory Concentration (IC50) Values against HDAC6, Activity Range
property_measured: IC50

1. CC(C)COc1ccc(C(C)(C)C(=O)N2CCOc3cc(C(=O)NO)ccc3C2)cc1 | 100 to 500 nM
2. COC1CCC(C(=O)N2Cc3ccc(C(=O)NO)cc3OC[C@@H]2C)CC1 (single isomer, unassigned) | ≤ 100 nM

As a next step, examine the molecule that follows.
IC50 for C[C@H]1COc2cc(C(=O)NO)ccc2CN1C(=O)C1CC(OCc2ccccc2)C1 (stereo partly drawn) ? ≤ 100 nM

---

Could you please report measured pIC50 for the items listed next?
target: Full length human recombinant HDAC6 protein (Homo sapiens, UniProt Q9UBN7); assay: In vitro histone deacetylase assay: enzymatic HDAC6 electrophoretic mobility shift assay; details: 1 nM enzyme, 2 μM peptide substrate RHKK(Ac)-NH2, 25° C., 12 concentrations; read-out: Inhibitory Concentration (IC50) Values against HDAC6, Activity Range
pIC50: −log10 of the molar value.

1) CC(C)(C)OC(=O)N1CC2(CC(C(=O)N3CCOc4cc(C(=O)NO)ccc4C3)CO2)C1 (centres unmarked) | 6.30 to 7.00

// for each compound below, give its pIC50
1. O=C(NO)c1ccc2c(c1)OCCN(C(=O)Cc1ccc(C(F)(F)F)cc1)C2
2. O=C(NO)c1ccc2c(c1)OCCN(C(=O)C(Oc1ccccc1)c1ccccc1)C2 (centres unmarked)
3. CC(C)C(O)(C(=O)N1CCOc2cc(C(=O)NO)ccc2C1)c1ccccc1 (centres unmarked)
4. O=C(NO)c1ccc2c(c1)OCCN(C(=O)C(c1ccccc1)n1cnnn1)C2 (centres unmarked)
5. CC(=O)N1Cc2ccc(C(=O)NO)cc2OC[C@@H]1C

1: < 6.30; 2: 6.30 to 7.00; 3: < 6.30; 4: 6.30 to 7.00; 5: 6.30 to 7.00

// for each compound below, give its pIC50
1. C[C@H](C(=O)N1CCOc2cc(C(=O)NO)ccc2C1)c1ccccc1
2. C[C@H]1COc2cc(C(=O)NO)ccc2CN1C=O
3. CS(=O)(=O)N1CCC(CC(=O)N2CCOc3cc(C(=O)NO)ccc3C2)CC1

1. 6.30 to 7.00
2. ≥ 7.00
3. < 6.30

// for each compound below, give its pIC50
1. COC[C@@H]1CN(C(=O)C2CCOCC2)Cc2ccc(C(=O)NO)cc2O1
2. COC[C@H]1CN(C(=O)C2(C)CCC2)Cc2ccc(C(=O)NO)cc2O1
3. C[C@H]1c2ccc(C(=O)NO)cc2OCCN1C(=O)[C@]1(C)CCCOC1
4. Cn1ccc(C(=O)N2CCOc3cc(C(=O)NO)ccc3C2)n1
5. O=C(NO)c1cnc2c(n1)OCCN(C(=O)C1CCCCC1)C2

1. 6.30 to 7.00
2. 6.30 to 7.00
3. ≥ 7.00
4. ≥ 7.00
5. ≥ 7.00

---

target: Full length human recombinant HDAC6 protein (Homo sapiens, UniProt Q9UBN7); test: In vitro histone deacetylase assay: enzymatic HDAC6 electrophoretic mobility shift assay; details: 1 nM enzyme, 2 μM peptide substrate RHKK(Ac)-NH2, 25° C., 12 concentrations; read-out: Inhibitory Concentration (IC50) Values against HDAC6, Activity Range
Could you please report measured IC50 for the items listed next?

The following molecules have reported results that may help.
1. O=C(NO)c1ccc2c(c1)OCCN(C(=O)C1(c3ccc(F)cc3)CC1)C2 | ≤ 100 nM
2. O=C(NO)c1ccc2c(c1)OCCN(C(=O)c1ccc(OC(F)F)cc1)C2 | 100 to 500 nM
3. CC(=O)N1Cc2ccc(C(=O)NO)cc2OC[C@H]1C(C)C | 100 to 500 nM
4. O=C(NO)c1ccc2c(c1)OCCN(C(=O)C1OC3(CCNCC3)c3ccccc31)C2 (centres unmarked) | 100 to 500 nM
5. C[C@H]1COc2cc(C(=O)NO)ccc2CN1C(=O)C1(C)CCOCC1 | ≤ 100 nM

// for each molecule below, give its IC50
1. C[C@H]1c2ccc(C(=O)NO)cc2OCCN1C(=O)C1COC1
2. O=C(NO)c1ccc2c(c1)OCCN(C(=O)C1(c3ccccc3)CCOCC1)C2
3. O=C(NO)c1ccc2c(c1)OCCN(C(=O)c1ccccc1)C2
4. CC1(C(=O)N2CCOc3cc(C(=O)NO)ccc3C2)CC1
5. O=CN1Cc2ccc(C(=O)NO)cc2O[C@H](c2ccccc2)C1
6. COCC1(C(=O)N2Cc3ccc(C(=O)NO)cc3OC[C@@H]2C)COC1

≤ 100 nM
100 to 500 nM
≤ 100 nM
≤ 100 nM
≤ 100 nM
≤ 100 nM

---

Could you please report measured pIC50 for the items listed next?
Molecular target: Full length human recombinant HDAC6 protein (Homo sapiens)
Sequence (Q9UBN7 1-1215): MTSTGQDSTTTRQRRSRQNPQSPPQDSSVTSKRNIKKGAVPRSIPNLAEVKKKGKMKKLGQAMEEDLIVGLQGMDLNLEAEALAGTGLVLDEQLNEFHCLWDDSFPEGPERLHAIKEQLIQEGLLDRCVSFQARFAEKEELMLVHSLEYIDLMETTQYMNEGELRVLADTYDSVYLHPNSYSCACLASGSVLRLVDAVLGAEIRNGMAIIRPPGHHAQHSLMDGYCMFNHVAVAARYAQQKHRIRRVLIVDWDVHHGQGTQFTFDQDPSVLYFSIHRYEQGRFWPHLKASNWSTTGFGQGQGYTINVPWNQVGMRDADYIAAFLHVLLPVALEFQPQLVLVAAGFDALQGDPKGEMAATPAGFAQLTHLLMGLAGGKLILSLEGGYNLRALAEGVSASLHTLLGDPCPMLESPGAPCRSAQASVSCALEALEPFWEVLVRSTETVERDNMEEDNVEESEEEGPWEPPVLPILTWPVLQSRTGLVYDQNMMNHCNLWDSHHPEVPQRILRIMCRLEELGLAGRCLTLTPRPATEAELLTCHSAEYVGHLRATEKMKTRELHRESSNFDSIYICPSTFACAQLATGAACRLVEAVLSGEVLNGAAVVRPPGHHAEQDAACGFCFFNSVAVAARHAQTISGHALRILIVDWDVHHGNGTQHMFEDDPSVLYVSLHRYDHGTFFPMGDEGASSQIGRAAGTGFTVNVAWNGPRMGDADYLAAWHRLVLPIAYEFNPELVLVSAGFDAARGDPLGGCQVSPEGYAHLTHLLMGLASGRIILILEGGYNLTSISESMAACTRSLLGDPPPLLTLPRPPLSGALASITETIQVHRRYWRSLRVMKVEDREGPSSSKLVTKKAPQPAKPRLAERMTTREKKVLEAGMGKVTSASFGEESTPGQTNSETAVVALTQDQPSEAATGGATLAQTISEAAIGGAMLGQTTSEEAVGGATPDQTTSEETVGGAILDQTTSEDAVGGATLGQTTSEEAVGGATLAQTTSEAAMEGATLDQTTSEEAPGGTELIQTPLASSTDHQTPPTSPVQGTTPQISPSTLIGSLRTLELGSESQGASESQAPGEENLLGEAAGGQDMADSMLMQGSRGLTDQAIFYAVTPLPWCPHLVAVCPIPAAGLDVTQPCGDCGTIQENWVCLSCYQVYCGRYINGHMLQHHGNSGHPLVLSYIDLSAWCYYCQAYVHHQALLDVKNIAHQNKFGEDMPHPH
Test: In vitro histone deacetylase assay: enzymatic HDAC6 electrophoretic mobility shift assay
Details: 1 nM enzyme, 2 μM peptide substrate RHKK(Ac)-NH2, 25° C., 12 concentrations; read-out: Inhibitory Concentration (IC50) Values against HDAC6, Activity Range
pIC50: −log10 of the molar value.

The following molecules have reported results that may help.
1) C[C@H]1COc2cc(C(=O)NO)ccc2CN1C(=O)[C@@H]1CCOC1 | ≥ 7.00
2) Cn1cc(C(=O)N2CCOc3cc(C(=O)NO)ccc3C2)ccc1=O | < 6.30
3) COc1ccc(CC(=O)N2CCOc3ccc(C(=O)NO)cc3C2)cc1 | < 6.30
4) O=C(NO)c1ccc2c(c1)OC[C@H](C(F)(F)F)N(C(=O)C1COC1)C2 | ≥ 7.00
5) O=C(NO)c1ccc2c(c1)OCCN(C(=O)C1(c3ccccc3Cl)CC1)C2 | ≥ 7.00

As a next step, examine the molecule that follows.
Query for Full length human recombinant HDAC6 protein (Homo sapiens): what pIC50 does the record show for CC(C)[C@H]1COc2cc(C(=O)NO)ccc2CN1C(=O)C1CCOCC1 ? ≥ 7.00
